# tested system: Albumin (Homo sapiens)
# method notes: Binding affinity to defatted human serum albumin in presence of salicylic acid
# Type: ADME
# measurement context: isolated protein
Form field: Ka (one value per entry).
endpoint label: Ka (L/mol)

sample_smiles=Cc1cn([C@H]2C[C@H](N=[N+]=[N-])[C@@H](COC(=O)C(=O)O)O2)c(=O)[nH]c1=O uom=L/mol numeric_readout=604.5
sample_smiles=Cc1cn([C@H]2C[C@H](N=[N+]=[N-])[C@@H](COC(=O)C(=O)N[C@@H](CC(C)C)C(=O)O)O2)c(=O)[nH]c1=O uom=L/mol numeric_readout=449
sample_smiles=Cc1cn([C@H]2C[C@H](N=[N+]=[N-])[C@@H](COC(=O)C(=O)N3CCC[C@H]3C(=O)O)O2)c(=O)[nH]c1=O uom=L/mol numeric_readout=811.7
sample_smiles=Cc1cn([C@H]2C[C@H](N=[N+]=[N-])[C@@H](COC(=O)C(=O)N[C@@H](Cc3ccccc3)C(=O)O)O2)c(=O)[nH]c1=O uom=L/mol numeric_readout=716.7
sample_smiles=Cc1cn([C@H]2C[C@H](N=[N+]=[N-])[C@@H](COC(=O)C(=O)N[C@H](C(=O)O)C(C)C)O2)c(=O)[nH]c1=O uom=L/mol numeric_readout=1312.6
sample_smiles=Cc1cn([C@H]2C[C@H](N=[N+]=[N-])[C@@H](COC(=O)C(=O)N[C@@H](Cc3ccc(O)cc3)C(=O)O)O2)c(=O)[nH]c1=O uom=L/mol numeric_readout=811.7
sample_smiles=CC[C@H](C)[C@H](NC(=O)C(=O)OC[C@H]1O[C@@H](n2cc(C)c(=O)[nH]c2=O)C[C@@H]1N=[N+]=[N-])C(=O)O uom=L/mol numeric_readout=397.2
sample_smiles=Cc1cn([C@H]2C[C@H](N=[N+]=[N-])[C@@H](COC(=O)C(=O)N[C@@H](Cc3c[nH]c4ccccc34)C(=O)O)O2)c(=O)[nH]c1=O uom=L/mol numeric_readout=1519.8

====

# tested system: Albumin (Homo sapiens, UniProt P02768)
# Sequence (P02768 whole entry): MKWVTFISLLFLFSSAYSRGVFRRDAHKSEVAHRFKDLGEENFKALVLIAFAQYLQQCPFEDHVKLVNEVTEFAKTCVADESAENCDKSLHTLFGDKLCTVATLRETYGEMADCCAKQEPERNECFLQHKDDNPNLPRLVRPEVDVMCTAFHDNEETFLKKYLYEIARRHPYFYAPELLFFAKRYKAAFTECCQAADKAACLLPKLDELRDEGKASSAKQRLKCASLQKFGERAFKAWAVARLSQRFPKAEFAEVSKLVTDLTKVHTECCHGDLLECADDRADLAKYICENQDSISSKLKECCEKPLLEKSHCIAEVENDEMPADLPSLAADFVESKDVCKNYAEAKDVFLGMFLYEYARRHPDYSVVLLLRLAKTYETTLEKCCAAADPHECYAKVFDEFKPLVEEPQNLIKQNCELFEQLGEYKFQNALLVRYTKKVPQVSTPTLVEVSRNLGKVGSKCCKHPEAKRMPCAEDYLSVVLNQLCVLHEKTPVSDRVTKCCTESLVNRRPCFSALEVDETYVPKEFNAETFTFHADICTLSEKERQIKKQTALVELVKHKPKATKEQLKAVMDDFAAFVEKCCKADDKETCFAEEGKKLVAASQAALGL
# method notes: Binding affinity to defatted human serum albumin
# Assay type: ADME
# measurement context: isolated protein
Ka below 2000 L/mol gives No; Ka at or above it gives Yes.

sample_smiles=CC[C@H](C)[C@H](NC(=O)C(=O)OC[C@H]1O[C@@H](n2cc(C)c(=O)[nH]c2=O)C[C@@H]1N=[N+]=[N-])C(=O)O label_class=Yes
sample_smiles=Cc1cn([C@H]2C[C@H](N=[N+]=[N-])[C@@H](COC(=O)C(=O)N3CCC[C@H]3C(=O)O)O2)c(=O)[nH]c1=O label_class=No
sample_smiles=Cc1cn([C@H]2C[C@H](N=[N+]=[N-])[C@@H](COC(=O)C(=O)N[C@@H](Cc3ccc(O)cc3)C(=O)O)O2)c(=O)[nH]c1=O label_class=No
sample_smiles=Cc1cn([C@H]2C[C@H](N=[N+]=[N-])[C@@H](COC(=O)C(=O)N[C@@H](Cc3c[nH]c4ccccc34)C(=O)O)O2)c(=O)[nH]c1=O label_class=No
sample_smiles=Cc1cn([C@H]2C[C@H](N=[N+]=[N-])[C@@H](COC(=O)C(=O)N[C@@H](Cc3ccccc3)C(=O)O)O2)c(=O)[nH]c1=O label_class=No
sample_smiles=Cc1cn([C@H]2C[C@H](N=[N+]=[N-])[C@@H](COC(=O)C(=O)O)O2)c(=O)[nH]c1=O label_class=Yes
sample_smiles=Cc1cn([C@H]2C[C@H](N=[N+]=[N-])[C@@H](COC(=O)c3ccncc3)O2)c(=O)[nH]c1=O label_class=No
sample_smiles=Cc1cn([C@H]2C[C@H](N=[N+]=[N-])[C@@H](COC(=O)C(=O)N[C@H](C(=O)O)C(C)C)O2)c(=O)[nH]c1=O label_class=No
sample_smiles=Cc1cn([C@H]2C[C@H](N=[N+]=[N-])[C@@H](COC(=O)C(=O)N[C@@H](CC(C)C)C(=O)O)O2)c(=O)[nH]c1=O label_class=Yes
